target: PDL1, Q9NZQ7
Sequence (Q9NZQ7 whole entry): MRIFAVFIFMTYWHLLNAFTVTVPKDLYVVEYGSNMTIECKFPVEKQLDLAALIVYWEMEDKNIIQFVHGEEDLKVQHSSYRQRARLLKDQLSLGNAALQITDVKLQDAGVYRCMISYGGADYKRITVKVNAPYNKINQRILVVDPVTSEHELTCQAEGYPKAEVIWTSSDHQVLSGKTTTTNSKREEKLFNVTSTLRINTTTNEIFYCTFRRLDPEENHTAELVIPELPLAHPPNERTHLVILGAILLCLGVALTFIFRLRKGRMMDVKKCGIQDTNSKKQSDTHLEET
PROPERTY LABEL: binding in a display sort

- BINDER: "d8r1_design_ppi_701_dldesign_0_cycle1_af2pred (protein) EERRRRGEELLLEALALIGAAARDPAAAPAAVAALRAAAALVPELAPELERAAALVEAGLAAAKEAAAIVGSLALKMAS"
  MEASUREMENT: "not found (inactive)"
- BINDER: "d8r1_design_ppi_540_dldesign_0_cycle1_af2pred (protein) DKKTETILAGMEAASNAAALLKKDPAAGGAYLLAKAKEVGAAVGNAADIVPAAAAAAADPATAAARLREFVSIVVSSVTS"
  MEASUREMENT: "not found (inactive)"
- BINDER: "d8r1_design_ppi_400_dldesign_0_cycle0_af2pred (protein) SAELAAIKAAAENARAGAILLAKESKAETALKFNEAAKERLLKLAAATADAKAAKAVVEEEAKKAEEEIKKIGEE"
  MEASUREMENT: "not found (inactive)"
